Assay: soluble on expression in E. coli; label from the status in PepcDB or PDB records
METRIC: soluble on expression in E. coli

Known results for sequences:
{"columns": ["CHAIN", "soluble on expression in E. coli"],
 "data": [
  ["MKSFQLVATAASGLEAIVGKEVARLGYDPKVENGKVYFEGDLSAIARANLWLRVADRVKIVVGVFKATTFDELFEKTKALPWEDYLPLDAQFPVAGKSVKSTLYSVPDCQAIVKKAIVNRVSEKYRRSGRLMETGALFKLEVSILKDEVTLTIDTSGAGLHKRGYRLAQGSAPIKETMAAALVLLTSWHPDRPFYDPVCGSGTIPIEAALIGQNIAPGFNREFVSETWDWMPKQVWADARQEAEDLANYDQPLNIIGGDIDARLIEIAKQNAVEAGLGDLITFRQLQVADFQTEDEYGVVVANPPYGERLEDEEAVRQLYREMGIVYKRMPTWSVYVLTSYELFEEVYGKKATKKRKLYNGYLRTDLYQYWGPRKPRPKKED", "soluble"],
  ["AKAAGSSIGQQDTLVMLLNFKENPNDQPITSEEAHALVFGEVNDFYQENSYGKTWLSGQVAGWYTLPVSDQVCDYPSVQAEADKMARADGIVLEDYQR", "not soluble"],
  ["MDVFDGLPDPIIVDILNKVGDVKTLLRCSSLSKRFNSLVPQSESLTLRLDHSVSDSPVVTSIFRSLFNGLVSLLSKPAKPITITTLSPSLPFKILSRFDRIRNLDVELPGGDVKLEKGAAVKWKAEFGKTLKSCVIVAFRSAGTVSSPVAVEGESDAEFVTGLKTRVVWTISALMAASSRHYLMREVVKEHEEIESLVMRDKEREGTVVMNEEGLKELRNTEARVEDEERVVKNKRSVVPSVRMSMRHAPSLKLKSGICLESATLVIVRPSGADFEVGDDAELATEAFVGDCMYGEAVVALLKCKKNALEMNSF", "not soluble"],
  ["MQKSVLITGCSSGIGLDSALELKRQGFQILAGCRKPDDVARMNSMGFTGVLIDLDSPESVDRAADEVIALTDNRLYGIFNNAGYGVYGPLSTISREQMEQQFSSNFFGAHQLTMRLLPAMLPHGEGRIVMTSSVMGLISTPGRGAYAASKYALEAWSDALRMELRHTGIKVSLIEPGPIRTRFTDNVNQTQRDKPVENPGIAARFTRDPDAVVAKVRHAFASDKPRLRYPVTLVTWAVMALKRILPGRMLDKILQS", "not soluble"],
  ["MSLTKRWFNVGKIVNTHGIKGEVRVISKTDFAEERYKPGNTLYLFMDGRNEPVEVTVNTHRLHKQFHLLQFKEGQNLNEVEELKNAIIKVPEEELGELNEGEFYFHEIIGCEVFTEEGELIGKVKEILTPGANDVWVIGRKGKKDALIPYIESVVKHIDVREKKIEIELMEGLIDEEGGSHHHHHH", "soluble"]
]}

Working through the 2 sequences below one at a time, give soluble on expression in E. coli for each.
1. MNKRVQAFLAKMQEKELDGIIINNLKNVYYLTGFWGSNGTVFISRDRQVLVTDSRYIIAAKQETSGFEIVADRDELAVIAGIVKDMGLTRIGFEDEISVSYYHRMQAAFAGLNLLPQTQFVEGLRMIK
2. MPKASLIIRERGLPKREVLLSPDRQWTIGRQLDCSIRLTDAYVSRLHAVINAFLFRGQPLYFIRDAHSRNGTFLNGFPLQHSTLLHHEDVIGVGTTLLVFYYPDMFREISLDECPLEHHHHHH

Given back:
["not soluble", "soluble"]
